target: Proto-oncogene tyrosine-protein kinase Src (Homo sapiens, UniProt P12931); assay: Inhibition of human recombinant cSrc by fluorescence polarization assay
Sequence (P12931 2-536 limits assumed): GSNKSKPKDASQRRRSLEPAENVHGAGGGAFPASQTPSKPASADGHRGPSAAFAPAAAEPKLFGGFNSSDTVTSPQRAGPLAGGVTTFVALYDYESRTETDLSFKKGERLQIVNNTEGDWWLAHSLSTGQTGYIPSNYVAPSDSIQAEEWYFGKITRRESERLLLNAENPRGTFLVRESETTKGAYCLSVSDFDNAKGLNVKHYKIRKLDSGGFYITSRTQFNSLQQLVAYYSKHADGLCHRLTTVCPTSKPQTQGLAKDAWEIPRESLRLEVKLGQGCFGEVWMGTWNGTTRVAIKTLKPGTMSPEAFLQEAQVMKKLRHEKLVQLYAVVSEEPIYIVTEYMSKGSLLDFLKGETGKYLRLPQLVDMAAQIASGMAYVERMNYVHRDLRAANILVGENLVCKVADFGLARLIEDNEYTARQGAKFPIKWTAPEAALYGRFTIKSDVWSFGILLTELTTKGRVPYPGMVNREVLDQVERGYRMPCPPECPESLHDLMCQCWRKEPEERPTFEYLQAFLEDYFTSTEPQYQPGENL
pIC50: −log10 of the molar value.
OBSERVED PROPERTY: pIC50

Retrieve pIC50 on Proto-oncogene tyrosine-protein kinase Src (Homo sapiens, UniProt P12931); query Cc1cc2c(Nc3nc4ccccc4[nH]3)c(C#N)cnc2cc1OCCCN1CCN(C)CC1
< 6.00

Values from ChEMBL document CHEMBL1150398
